tested on: PC-6; assay: In vitro cytotoxicity was evaluated in PC6 cell line; assay type: functional, cell-based; conditions: Homo sapiens
PROPERTY MEASURED: IC50 (nM)
Write the value in nM as a bare number.

[Q] Reported IC50, compound COc1cc2c(cc1O)N=C[C@@H]1CCCN1C2=O : ____
[A] 330

Source: ChEMBL document CHEMBL1136281
